assay: Plasma pharmacokinetics of TSU-68 in phase I patients; type: in vivo, human; conditions: human, plasma, oral, 200 mg/m2, C max, b.i.d. after meal, 56th dose, 200 mg/m^2, n=3, mean ± SD
Reported metric: Cmax

(Q) Given the entry Cc1[nH]c(/C=C2\C(=O)Nc3ccccc32)c(C)c1CCC(=O)O , report its measured Cmax.
(A) 4790 ng/mL

====

experiment: Plasma pharmacokinetics of TSU-68 in phase I patients; assay type: in vivo, human; settings: human, plasma, oral, 200 mg/m2, T 1/2, b.i.d. after meal, 3rd dose, 200 mg/m^2, n=3, mean ± SD
Reported metric: half-life (h)
Numbers only here, please. The scale is h.

(Q) Quick one: half-life of Cc1[nH]c(/C=C2\C(=O)Nc3ccccc32)c(C)c1CCC(=O)O ?
(A) 2.71

====

test: Plasma pharmacokinetics of TSU-68 in phase I patients; assay type: in vivo, human; settings: human, plasma, oral, 400 mg/m2, C max, b.i.d. after meal, 56th dose, 400 mg/m^2, N = 4, mean ± SD
Reported metric: Cmax (ng/mL)
Just the number in ng/mL, nothing appended.

(Q) Request the reported Cmax associated with Cc1[nH]c(/C=C2\C(=O)Nc3ccccc32)c(C)c1CCC(=O)O
(A) 8410

====

test: Plasma pharmacokinetics of TSU-68 in phase I patients; assay type: in vivo, human; conditions: human, plasma, oral, 200 mg/m2, T max, t.i.d. after meal, 2nd dose, 200 mg/m^2, n=6, mean ± SD
Reported metric: Tmax (h)
Numeric only. Scale: h

(Q) Returns the measured Tmax for the input compound. Input: Cc1[nH]c(/C=C2\C(=O)Nc3ccccc32)c(C)c1CCC(=O)O
(A) 3.67

====

assay: Plasma pharmacokinetics of TSU-68 in phase I patients; format: in vivo, human; settings: human, plasma, oral, 400 mg/m2, T 1/2, b.i.d. after meal, 56th dose, 400 mg/m^2 (6), mean ± SD
Reported metric: half-life (h)
State just the number; it will be interpreted in h.

(Q) // lookup half-life for Cc1[nH]c(/C=C2\C(=O)Nc3ccccc32)c(C)c1CCC(=O)O [TSU-68]
(A) 2.6

====

test: Plasma pharmacokinetics of TSU-68 in phase I patients; assay type: in vivo, human; conditions: human, plasma, oral, 500 mg/m2, AUC0–t, b.i.d. after meal, 1st dose, 500 mg/m^2, n=3, mean ± SD
Reported metric: AUC(0-t) (µg·h/mL)
Response body: numeric value in µg·h/mL, unit text excluded.

(Q) I'd like to know its AUC(0-t). The compound in question is Cc1[nH]c(/C=C2\C(=O)Nc3ccccc32)c(C)c1CCC(=O)O
(A) 103

====

assay: Plasma pharmacokinetics of TSU-68 in phase I patients; assay type: in vivo, human; conditions: human, plasma, oral, 200 mg/m2, T max, b.i.d. after meal, 1st dose, 200 mg/m^2, n=3, mean ± SD
Reported metric: Tmax (h)
Quick reminder: number only, in h, skip the unit.

(Q) For the compound Cc1[nH]c(/C=C2\C(=O)Nc3ccccc32)c(C)c1CCC(=O)O [TSU-68] , what Tmax is on record?
(A) 3

====

assay: Plasma pharmacokinetics of TSU-68 in phase I patients; assay type: in vivo, human; conditions: human, plasma, oral, 500 mg/m2, T max, b.i.d. after meal, 1st dose, 500 mg/m^2, n=3, mean ± SD
Reported metric: Tmax (h)
Write the value in h as a bare number.

(Q) For the compound Cc1[nH]c(/C=C2\C(=O)Nc3ccccc32)c(C)c1CCC(=O)O , what Tmax is on record?
(A) 4

====

assay: Plasma pharmacokinetics of TSU-68 in phase I patients; format: in vivo, human; conditions: human, plasma, oral, 400 mg/m2, T 1/2, t.i.d. after meal, 84th dose, 400 mg/m^2, N = 2, mean
Reported metric: half-life
Give me the value, and tack the unit on after it.

(Q) Query: half-life; subject: Cc1[nH]c(/C=C2\C(=O)Nc3ccccc32)c(C)c1CCC(=O)O [TSU-68]
(A) 2.23 h

====

assay: Plasma pharmacokinetics of TSU-68 in phase I patients; type: in vivo, human; conditions: human, plasma, oral, 200 mg/m2, T max, b.i.d. after meal, 56th dose, 200 mg/m^2, n=3, mean ± SD
Reported metric: Tmax

(Q) Param item = Cc1[nH]c(/C=C2\C(=O)Nc3ccccc32)c(C)c1CCC(=O)O ; retrieve measured Tmax.
(A) 2.67 h

====

experiment: Plasma pharmacokinetics of TSU-68 in phase I patients; type: in vivo, human; conditions: human, plasma, oral, 200 mg/m2, T 1/2, b.i.d. after meal, 56th dose, 200 mg/m^2, N = 2, mean
Reported metric: half-life (h)
Numbers only; they are read as h.

(Q) Fill in the blank: the reported half-life of Cc1[nH]c(/C=C2\C(=O)Nc3ccccc32)c(C)c1CCC(=O)O is ____.
(A) 3.47

====

test: Plasma pharmacokinetics of TSU-68 in phase I patients; format: in vivo, human; conditions: human, plasma, oral, 500 mg/m2, T 1/2, b.i.d. after meal, 3rd dose, 500 mg/m^2, n=3, mean ± SD
Reported metric: half-life (h)
Enter your answer as a number in h; do not include the unit.

(Q) So what does the record say about half-life for Cc1[nH]c(/C=C2\C(=O)Nc3ccccc32)c(C)c1CCC(=O)O [TSU-68] ?
(A) 3.33

====

experiment: Plasma pharmacokinetics of TSU-68 in phase I patients; type: in vivo, human; settings: human, plasma, oral, 400 mg/m2, T max, b.i.d. after meal, 1st dose, 400 mg/m^2, n=6, mean ± SD
Reported metric: Tmax (h)
# unit: h | format: bare number

(Q) Which Tmax reading was recorded for the compound Cc1[nH]c(/C=C2\C(=O)Nc3ccccc32)c(C)c1CCC(=O)O [TSU-68] ?
(A) 2.67

====

assay: Plasma pharmacokinetics of TSU-68 in phase I patients; assay type: in vivo, human; conditions: human, plasma, oral, 400 mg/m2, AUC0–t, t.i.d. after meal, 84th dose, 400 mg/m^2, n=6, mean ± SD
Reported metric: AUC(0-t) (ng·h/mL)
Quick reminder: number only, in ng·h/mL, skip the unit.

(Q) Using the record for Cc1[nH]c(/C=C2\C(=O)Nc3ccccc32)c(C)c1CCC(=O)O , report its AUC(0-t).
(A) 31600

====

experiment: Plasma pharmacokinetics of TSU-68 in phase I patients; type: in vivo, human; conditions: human, plasma, oral, 200 mg/m2, T 1/2, t.i.d. after meal, 1st dose, 200 mg/m^2, N = 3, mean ± SD
Reported metric: half-life
Quick note: number first, unit second.

(Q) Please look up its half-life: Cc1[nH]c(/C=C2\C(=O)Nc3ccccc32)c(C)c1CCC(=O)O
(A) 2.04 h

====

test: Plasma pharmacokinetics of TSU-68 in phase I patients; assay type: in vivo, human; conditions: human, plasma, oral, 200 mg/m2, C max, t.i.d. after meal, 1st dose, 200 mg/m^2, n=6, mean ± SD
Reported metric: Cmax (ng/mL)
Provide only the numeric value, understood in ng/mL.

(Q) Return reported Cmax; argument: Cc1[nH]c(/C=C2\C(=O)Nc3ccccc32)c(C)c1CCC(=O)O
(A) 11000

====

experiment: Plasma pharmacokinetics of TSU-68 in phase I patients; format: in vivo, human; settings: human, plasma, oral, 400 mg/m2, T max, b.i.d. after meal, 3rd dose, 400 mg/m^2, n=6, mean ± SD
Reported metric: Tmax (h)
Entry rule: numbers only, all in h.

(Q) Reported Tmax for Cc1[nH]c(/C=C2\C(=O)Nc3ccccc32)c(C)c1CCC(=O)O [TSU-68] : what is it?
(A) 2.67

====

assay: Plasma pharmacokinetics of TSU-68 in phase I patients; type: in vivo, human; details: human, plasma, oral, 400 mg/m2, AUC0–t, b.i.d. after meal, 3rd dose, 400 mg/m^2, n=6, mean ± SD
Reported metric: AUC(0-t) (ng·h/mL)
Please state the figure in ng·h/mL; there is no need to write the unit.

(Q) Recorded AUC(0-t) for Cc1[nH]c(/C=C2\C(=O)Nc3ccccc32)c(C)c1CCC(=O)O , please?
(A) 40400

====

assay: Plasma pharmacokinetics of TSU-68 in phase I patients; format: in vivo, human; conditions: human, plasma, oral, 500 mg/m2, C max, b.i.d. after meal, 3rd dose, 500 mg/m^2, n=3, mean ± SD
Reported metric: Cmax (µg/mL)
Hi! Could you send only the number? It should be in µg/mL, unit omitted.

(Q) Can you share its Cmax? I mean this compound: Cc1[nH]c(/C=C2\C(=O)Nc3ccccc32)c(C)c1CCC(=O)O
(A) 8.79

====

assay: Plasma pharmacokinetics of TSU-68 in phase I patients; format: in vivo, human; details: human, plasma, oral, 400 mg/m2, AUC0–t, b.i.d. after meal, 56th dose, 400 mg/m^2, N = 4, mean ± SD
Reported metric: AUC(0-t) (ng·h/mL)
Numbers only; they are read as ng·h/mL.

(Q) What measured AUC(0-t) goes with Cc1[nH]c(/C=C2\C(=O)Nc3ccccc32)c(C)c1CCC(=O)O ?
(A) 36900
